# Relative Affinity per entry
study_target: T1, Insulin-like Growth Factor II (IGF-II), recombinant human (human, UniProt P01344 25-91, biotinyl group (site not stated) when immobilised for SPR; not biotinylated as SPR analyte or in ITC)
T1 construct: mature; Bought as Biotinyl-IGF-II from GroPep for immobilisation on streptavidin chips; also called IGF2; Biotinyl-IGF-II
T1 sequence (P01344 25-91): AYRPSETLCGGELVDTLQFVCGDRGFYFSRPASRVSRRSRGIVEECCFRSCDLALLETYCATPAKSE
protocol: SPR, steady-state KD relative to wild type domain 11
property: Relative Affinity

[[record]]
binder = "IGF2R domain 11 with T at position 1544 (receptor, Secreted from Pichia pastoris; also called E1544T) NEHDDCQVTNPSTGHLFDLSSLSGRAGFTAAYSTKGLVYMSICGENENCPPGVGACFGQTRISVGKANKRLRYVDQVLQLVYKDGSPCPSKSGLSYKSVISFVCRPEAGPTNRPMLISLDKQTCTLFFSWHTPLACEQATHHHHHH"
data_value = "1.72 fold vs wild type domain 11"

[[record]]
binder = "IGF2R domain 11 E1544K (enhanced mutant) (receptor, Secreted from Pichia pastoris) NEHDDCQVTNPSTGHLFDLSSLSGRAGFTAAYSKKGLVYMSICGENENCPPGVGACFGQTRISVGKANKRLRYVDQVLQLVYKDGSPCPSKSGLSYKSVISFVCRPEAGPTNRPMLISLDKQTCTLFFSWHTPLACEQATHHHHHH"
data_value = "6.12 fold vs wild type domain 11"

[[record]]
binder = "IGF2R domain 11 E1544V (receptor, Secreted from Pichia pastoris) NEHDDCQVTNPSTGHLFDLSSLSGRAGFTAAYSVKGLVYMSICGENENCPPGVGACFGQTRISVGKANKRLRYVDQVLQLVYKDGSPCPSKSGLSYKSVISFVCRPEAGPTNRPMLISLDKQTCTLFFSWHTPLACEQATHHHHHH"
data_value = "1.96 fold vs wild type domain 11"

[[record]]
binder = "IGF2R domain 11, wild type, expressed in Pichia pastoris with C-terminal His6 tag (receptor, Alpha-factor signal is cleaved during secretion; soluble 17 kDa protein; also called WT; wild type domain 11) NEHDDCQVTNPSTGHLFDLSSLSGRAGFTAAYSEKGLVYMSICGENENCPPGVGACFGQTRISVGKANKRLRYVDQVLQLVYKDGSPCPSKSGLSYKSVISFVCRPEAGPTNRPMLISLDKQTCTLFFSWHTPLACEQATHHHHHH"
data_value = "1 fold vs wild type domain 11"

